Data provenance: patent US20070043024A1

pIC50: recorded values
- measurementTarget: human Nav1.8 (hNav1.8) ion channel (Homo sapiens, UniProt Q9Y5Y9)
- Construct: expressed in transfected cells
- Sequence (Q9Y5Y9 whole entry): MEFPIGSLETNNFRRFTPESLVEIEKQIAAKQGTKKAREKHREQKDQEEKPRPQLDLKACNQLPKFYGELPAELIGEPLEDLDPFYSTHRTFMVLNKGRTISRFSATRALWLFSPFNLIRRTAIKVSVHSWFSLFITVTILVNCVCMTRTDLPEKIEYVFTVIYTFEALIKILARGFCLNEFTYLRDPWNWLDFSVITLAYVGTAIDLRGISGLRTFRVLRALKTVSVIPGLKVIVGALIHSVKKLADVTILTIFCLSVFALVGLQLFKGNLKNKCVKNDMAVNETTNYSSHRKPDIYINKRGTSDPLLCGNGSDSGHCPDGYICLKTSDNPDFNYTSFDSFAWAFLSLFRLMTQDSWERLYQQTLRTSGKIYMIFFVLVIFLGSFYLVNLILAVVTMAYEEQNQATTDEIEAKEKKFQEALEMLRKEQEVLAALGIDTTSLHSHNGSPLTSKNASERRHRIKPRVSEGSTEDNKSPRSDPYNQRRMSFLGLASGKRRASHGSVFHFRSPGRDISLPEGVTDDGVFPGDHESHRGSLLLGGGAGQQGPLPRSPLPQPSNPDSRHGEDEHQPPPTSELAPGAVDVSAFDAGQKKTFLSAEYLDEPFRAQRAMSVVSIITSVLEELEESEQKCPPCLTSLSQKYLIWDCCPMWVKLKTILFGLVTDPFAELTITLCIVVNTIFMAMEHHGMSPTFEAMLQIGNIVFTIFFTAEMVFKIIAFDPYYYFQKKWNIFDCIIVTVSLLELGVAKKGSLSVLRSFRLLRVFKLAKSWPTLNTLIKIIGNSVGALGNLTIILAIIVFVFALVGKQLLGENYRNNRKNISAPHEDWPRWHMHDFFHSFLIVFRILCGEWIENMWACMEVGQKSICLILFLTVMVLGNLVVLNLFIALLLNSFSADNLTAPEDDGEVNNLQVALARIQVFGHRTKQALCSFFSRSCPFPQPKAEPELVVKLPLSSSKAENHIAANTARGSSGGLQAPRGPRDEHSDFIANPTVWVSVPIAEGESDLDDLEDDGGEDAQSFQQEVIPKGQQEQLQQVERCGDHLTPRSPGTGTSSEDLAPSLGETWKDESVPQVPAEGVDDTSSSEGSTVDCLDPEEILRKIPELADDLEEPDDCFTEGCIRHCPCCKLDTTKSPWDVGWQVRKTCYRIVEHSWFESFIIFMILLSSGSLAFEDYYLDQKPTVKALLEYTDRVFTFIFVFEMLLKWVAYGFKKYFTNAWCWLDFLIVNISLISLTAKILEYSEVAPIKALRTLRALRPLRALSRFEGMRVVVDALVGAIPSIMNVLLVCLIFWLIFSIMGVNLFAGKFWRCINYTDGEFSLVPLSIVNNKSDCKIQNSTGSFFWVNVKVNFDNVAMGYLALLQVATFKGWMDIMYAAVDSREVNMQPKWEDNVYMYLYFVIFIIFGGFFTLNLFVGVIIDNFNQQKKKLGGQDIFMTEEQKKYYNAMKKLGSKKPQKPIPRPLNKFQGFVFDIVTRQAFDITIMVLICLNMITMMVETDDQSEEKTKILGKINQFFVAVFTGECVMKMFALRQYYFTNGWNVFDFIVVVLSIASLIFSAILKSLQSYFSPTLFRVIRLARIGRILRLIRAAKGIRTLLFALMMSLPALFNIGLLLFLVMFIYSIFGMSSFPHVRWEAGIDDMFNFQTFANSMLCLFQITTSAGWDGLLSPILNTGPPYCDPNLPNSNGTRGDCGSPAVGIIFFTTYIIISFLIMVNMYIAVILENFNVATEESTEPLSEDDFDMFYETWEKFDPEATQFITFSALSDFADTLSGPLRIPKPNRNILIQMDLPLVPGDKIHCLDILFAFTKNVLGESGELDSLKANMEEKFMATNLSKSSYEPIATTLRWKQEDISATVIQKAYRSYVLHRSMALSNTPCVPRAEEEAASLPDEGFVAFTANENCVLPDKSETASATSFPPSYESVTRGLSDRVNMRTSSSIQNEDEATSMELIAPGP
- protocolDescription: Inhibition of human Nav1.8 stably expressed in SH-SY-5Y cells (membrane potential dye fluorescence assay)
- Assay type: cell-based
- conditionDescription: Table 2 (compound numbers of the list in the description); SH-SY-5Y hNav1.8 cells, inhibition of membrane depolarisation, FLIPR membrane potential dye, 250 nM TTX, test concentration range 100 μM-0.05 μM; read-out: IC50
pIC50: −log10 of the molar value.
endpointName: pIC50

1) CC(C)(C)C1COc2ccccc2N1C(=O)CN1CCc2cccc(O)c2C1 (stereo not drawn); 5.52
2) O=C(CN1CCc2cccc(O)c2C1)NN(c1ccccc1)c1ccccc1; 5.35
3) O=C(CN1Cc2ccccc2C1)NCC(c1ccccc1)c1ccccc1; 5.69
4) COc1cccc2c1CN(CC(=O)N1CCOc3ccccc31)CC2; 5.04
5) COc1cccc2c1CN(CC(=O)N(Cc1ccccc1)Cc1ccccc1)CC2; 5.99
6) Nc1cccc2c1CCN(CC(=O)NCC(c1ccccc1)c1ccccc1)C2; 5.54

###

- measurementTarget: human Nav1.8 (hNav1.8) ion channel (Homo sapiens)
- Construct: expressed in transfected cells
- protocolDescription: Inhibition of human Nav1.8 stably expressed in SH-SY-5Y cells (membrane potential dye fluorescence assay)
- Type: cell-based
- conditionDescription: Table 2 (compound numbers of the list in the description); SH-SY-5Y hNav1.8 cells, inhibition of membrane depolarisation, FLIPR membrane potential dye, 250 nM TTX, test concentration range 100 μM-0.05 μM; read-out: IC50
endpointName: IC50

1) COc1cccc2c1CN(CCC(=O)N(Cc1ccccc1)Cc1ccccc1)CC2; 490 nM
2) COc1ccc2c(c1)CCCN(CC(=O)NC(c1ccccc1)c1ccccc1)C2; 830 nM
3) COc1cccc2c1CN(CC(=O)NCCCOC(c1ccccc1)c1ccccc1)CC2; 2840 nM
4) Nc1cccc2c1CN(CC(=O)NCCC(c1ccccc1)c1ccccc1)C2; 2430 nM

###

pIC50: recorded values
- measurementTarget: human Nav1.8 (hNav1.8) ion channel (Homo sapiens, UniProt Q9Y5Y9)
- Construct: expressed in transfected cells
- protocolDescription: Inhibition of human Nav1.8 stably expressed in SH-SY-5Y cells (membrane potential dye fluorescence assay)
- Assay type: cell-based
- conditionDescription: Table 1; SH-SY-5Y hNav1.8 cells, inhibition of membrane depolarisation, FLIPR membrane potential dye, 250 nM TTX, test concentration range 100 μM-0.05 μM; read-out: IC50
pIC50: −log10 of the molar value.
endpointName: pIC50

1. COc1cccc2c1CN(CC(=O)NCCC(c1ccccc1)c1ccccc1)CC2 [Example 22]; 6.09
2. COc1cccc2c1CN(CC(=O)N1CCN(C(c3ccc(F)cc3)c3ccc(F)cc3)CC1)CC2 [Example 63]; 4.80
3. COc1cccc2c1CN(CC(=O)NC(c1ccccc1)c1ccccc1)CC2 [Example 19]; 6.14
